# Run Description: In vitro cytotoxicity assay, MTT
# Type: cell-based
# Run Conditions: African green monkey, Vero cells, mean ± S.D., read-out: CC50 Toxicity (Vero Cell)
Parameter Measured: CC50 (µg/mL)
Write it as a number; the unit µg/mL goes unstated.

stdin: May I ask what CC50 has been recorded for Cc1cc(C)c(Cn2c[n+](Cc3c(C)cc(C)cc3C)c3cc(C)c(C)cc32)c(C)c1.[Br-] ?
stdout: 1.1

stdin: For the molecule shown here, Cc1ccc(C[n+]2cn(Cc3ccc(C(C)(C)C)cc3)c3cc(C)c(C)cc32)cc1 , give the reported CC50.
stdout: 2.9
